Target: Pancreatic lipase (Sus scrofa, UniProt P00591)
Sequence (P00591 whole entry): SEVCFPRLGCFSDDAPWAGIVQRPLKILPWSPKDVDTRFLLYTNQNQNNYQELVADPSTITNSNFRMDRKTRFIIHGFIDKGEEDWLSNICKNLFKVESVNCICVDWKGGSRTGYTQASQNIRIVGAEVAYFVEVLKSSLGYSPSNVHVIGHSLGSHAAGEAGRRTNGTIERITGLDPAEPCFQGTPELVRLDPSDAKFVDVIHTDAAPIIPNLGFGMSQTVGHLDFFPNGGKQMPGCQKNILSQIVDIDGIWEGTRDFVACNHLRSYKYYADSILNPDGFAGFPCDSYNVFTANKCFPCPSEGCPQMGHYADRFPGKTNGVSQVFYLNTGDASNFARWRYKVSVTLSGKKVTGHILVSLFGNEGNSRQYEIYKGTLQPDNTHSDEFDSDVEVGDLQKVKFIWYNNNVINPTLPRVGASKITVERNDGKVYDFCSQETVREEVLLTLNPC
Assay: spectrophotometric p-nitrophenyl palmitate hydrolysis, single concentration […]
Assay type: biochemical
quantity: inhibition at 250 µM (%)
Give the value in % but do not write % after it.

Consider the worked cases shown below.
{"molecule": "COC(=O)c1c(O)cc(O)c2c1OC(c1ccc(O)cc1)C(O)C2 (stereo not shown) [compound 2]", "target entity": "Pancreatic lipase (Sus scrofa, UniProt P00591)", "inhibition at 250 µM [%]": 52}
{"molecule": "C[C@@H]1O[C@@H](OC[C@H]2O[C@@H](Oc3c(-c4ccc(O)c(O)c4)oc4cc(O)cc(O)c4c3=O)[C@H](O[C@@H]3O[C@@H](C)[C@H](O)[C@@H](O)[C@H]3O)[C@@H](O)[C@H]2O)[C@H](O)[C@H](O)[C@H]1O [compound 7]", "target entity": "Pancreatic lipase (Sus scrofa, UniProt P00591)", "inhibition at 250 µM [%]": 68}
{"molecule": "COc1cc2cc(Oc3ccc4ccc(=O)oc4c3)c(=O)oc2cc1O [compound 1, daphnoretin]", "target entity": "Pancreatic lipase (Sus scrofa, UniProt P00591)", "inhibition at 250 µM [%]": 72}

Now turn to the next molecule.
IN: State its inhibition at 250 µM: O=C1c2c(O)cc(O)cc2O[C@H](c2ccc(O)cc2)[C@@H]1[C@@H]1C(=O)c2c(O)cc(O)cc2O[C@@H]1c1ccc(O)cc1 [compound 3, neochamaejasmin A]
OUT: 61.8

Source: paper PMC10494966
